TARGET_DESC: Rat recombinant PDE10A (rPDE10A2) (Rattus norvegicus)
Construct: made in house; host or cells: Sf9 insect cells, baculovirus
Sequence (Q9QYJ6 whole entry): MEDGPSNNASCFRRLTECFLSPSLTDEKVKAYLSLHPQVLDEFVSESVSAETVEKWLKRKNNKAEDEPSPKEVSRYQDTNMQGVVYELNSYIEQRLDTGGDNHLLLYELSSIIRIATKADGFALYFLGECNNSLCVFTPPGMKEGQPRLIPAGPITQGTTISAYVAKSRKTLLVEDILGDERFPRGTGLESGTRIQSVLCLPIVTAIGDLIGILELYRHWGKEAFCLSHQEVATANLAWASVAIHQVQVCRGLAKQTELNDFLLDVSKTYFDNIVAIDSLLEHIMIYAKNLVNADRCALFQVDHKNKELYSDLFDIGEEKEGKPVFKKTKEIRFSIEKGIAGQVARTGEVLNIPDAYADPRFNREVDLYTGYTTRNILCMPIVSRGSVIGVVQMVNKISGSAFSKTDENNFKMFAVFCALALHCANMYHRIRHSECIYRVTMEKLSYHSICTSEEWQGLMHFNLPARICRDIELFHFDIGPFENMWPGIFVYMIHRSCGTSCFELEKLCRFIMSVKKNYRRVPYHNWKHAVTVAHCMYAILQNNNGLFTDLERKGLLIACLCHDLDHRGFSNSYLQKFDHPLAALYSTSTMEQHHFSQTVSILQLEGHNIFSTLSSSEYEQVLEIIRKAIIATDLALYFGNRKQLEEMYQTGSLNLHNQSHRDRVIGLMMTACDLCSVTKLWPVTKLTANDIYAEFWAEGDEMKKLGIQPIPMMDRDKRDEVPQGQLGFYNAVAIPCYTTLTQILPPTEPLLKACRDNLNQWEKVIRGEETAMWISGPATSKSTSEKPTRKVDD
ASSAY_OVERVIEW: In vitro assay PDE10A (SPA, 3H-cAMP)
Format: biochemical
PARTICULARS: pIC50 corresponds to the -log IC50 expressed in mol/L; read-out: PDE10A2 pIC50 (converted)
I'd be grateful if you could share measured IC50 for these entries.
All answers are understood in nM, so give the number only.

Query block: # input compound: Cc1nc2c(N3CCOCC3)nccn2c1-c1cnn(CC2CC2(F)F)c1 (single isomer, unassigned) [compound 47] ; wanted: its IC50
Result block: 28.2

Query block: # input compound: Cc1nc2c(N3CCOCC3)nccn2c1-c1cnc(C(C)C)[nH]1 ; wanted: its IC50
Result block: 263

Query block: # input compound: Cc1nc2c(N3CCOCC3)nccn2c1-c1cnn(CC(F)F)c1 ; wanted: its IC50
Result block: 57.5

Query block: # input compound: Cc1nc2c(N3CCOCC3)nccn2c1-c1cnn(CC2CCOCC2)c1 ; wanted: its IC50
Result block: 135

Query block: # input compound: COC(C)(C)Cn1cc(-c2c(C)nc3c(-c4ccncc4)nccn23)cn1 ; wanted: its IC50
Result block: 105

Query block: # input compound: Cc1nc2c(N3CCOCC3)nccn2c1-c1cnn(CCN2CCOCC2)c1 ; wanted: its IC50
Result block: 275

Query block: # input compound: COC[C@@H](C)n1cc(-c2c(C)nc3c(-c4ccncc4)nccn23)cn1 ; wanted: its IC50
Result block: 170

Query block: # input compound: COCCn1cc(-c2c(OC)nc3c(N4CCOCC4)nccn23)cn1 ; wanted: its IC50
Result block: 631

Query block: # input compound: COC(Cn1cc(-c2c(C)nc3c(N4CCOCC4)nccn23)cn1)C(C)C (single isomer, unassigned) [compound 54] ; wanted: its IC50
Result block: 56.2

Query block: # input compound: CCOC(C)(C)c1ccc(-c2c(C)nc3c(N4CCOCC4)nccn23)cn1 ; wanted: its IC50
Result block: 57.5

Query block: # input compound: COC(C)(C)Cc1ccc(-c2c(C3CC3)nc3c(N4CCOCC4)nccn23)cn1 ; wanted: its IC50
Result block: 75.9

Query block: # input compound: CC(=O)CCn1cc(-c2c(C)nc3c(N4CCOCC4)nccn23)cn1 ; wanted: its IC50
Result block: 138

Query block: # input compound: COCCc1ncc(-c2c(C)nc3c(N4CCOCC4)nccn23)cn1 ; wanted: its IC50
Result block: 148

Query block: # input compound: CC(=O)Cn1cc(-c2c(C)nc3c(N4CCOCC4)nccn23)cn1 ; wanted: its IC50
Result block: 309

Query block: # input compound: FC(F)(F)Cn1cc(-c2c(C3CC3)nc3c(-c4ccncc4)nccn23)cn1 ; wanted: its IC50
Result block: 20

Query block: # input compound: Cc1nc2c(-c3ccncc3)nccn2c1-c1cnn(CCN2CCOCC2)c1 ; wanted: its IC50
Result block: 457

Query block: # input compound: Cc1nc2c(N3CCOCC3)nccn2c1-c1cnn(CCF)c1 ; wanted: its IC50
Result block: 141

Query block: # input compound: Cc1nc2c(N3CCOCC3)nccn2c1-c1cnn(CC2CC2(F)F)c1 (stereo not drawn) [compound 52] ; wanted: its IC50
Result block: 52.5
